EXPERIMENTAL_SYSTEM: Factor X (FX), P00742
Sequence (P00742 whole entry, looked up): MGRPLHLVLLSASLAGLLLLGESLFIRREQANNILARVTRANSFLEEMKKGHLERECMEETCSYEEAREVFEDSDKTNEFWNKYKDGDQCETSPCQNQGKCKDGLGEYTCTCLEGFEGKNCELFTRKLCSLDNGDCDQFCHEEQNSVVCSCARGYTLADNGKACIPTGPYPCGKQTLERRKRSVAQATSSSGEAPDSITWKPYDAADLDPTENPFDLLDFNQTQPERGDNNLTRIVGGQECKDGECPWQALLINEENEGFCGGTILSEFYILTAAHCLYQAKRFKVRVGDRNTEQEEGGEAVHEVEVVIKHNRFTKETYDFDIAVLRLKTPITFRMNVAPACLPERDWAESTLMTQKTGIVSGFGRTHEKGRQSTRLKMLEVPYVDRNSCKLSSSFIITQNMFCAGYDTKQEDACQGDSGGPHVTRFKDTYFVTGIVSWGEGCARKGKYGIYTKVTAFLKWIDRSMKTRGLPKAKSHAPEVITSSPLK
PROPERTY: KM (nM); Catalytic activity of FIXa variants (KM)
// return numeric value only (unit: nM, not printed)

Consider the protein shown here: FIXa-Y155F/R318Y/R338E/N346D/R403E/E410N (protein) chain 1: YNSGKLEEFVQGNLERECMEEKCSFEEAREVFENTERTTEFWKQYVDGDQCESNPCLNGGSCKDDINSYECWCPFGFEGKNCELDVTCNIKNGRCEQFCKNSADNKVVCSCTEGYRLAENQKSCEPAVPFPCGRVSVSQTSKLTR chain 2: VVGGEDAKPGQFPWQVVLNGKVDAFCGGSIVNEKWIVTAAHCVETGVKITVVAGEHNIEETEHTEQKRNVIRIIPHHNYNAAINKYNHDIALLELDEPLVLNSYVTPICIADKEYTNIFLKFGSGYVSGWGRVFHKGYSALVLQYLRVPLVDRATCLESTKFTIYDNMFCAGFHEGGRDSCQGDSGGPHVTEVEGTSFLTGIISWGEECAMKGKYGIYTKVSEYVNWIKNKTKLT What is its recorded KM (nM); Catalytic activity of FIXa variants (KM)?
100

Where do the numbers come from? From patent US20210230570.
